target: Glutamate receptor ionotropic, AMPA (Rattus norvegicus) (UniProt P19491+P19492+P19493+P19490); assay: Displacement of [3H]AMPA from AMPA receptor in rat cortical synaptic membrane at 100 uM; assay type: cell membranes
Threshold check on inhibition: at or above 30% gives 1, strictly below gives -1.

-- ask Confirm if inhibition reported for the compound COC(=O)c1cccc(C(=O)Nc2cc3c(=O)n(O)c(=O)[nH]c3cc2Cl)c1 is 30% or above.
-- reply 1

-- ask I'd appreciate it if you could say whether CCOC(=O)COn1c(=O)[nH]c2cc(Cl)ccc2c1=O has inhibition at least equal to 30%.
-- reply -1

-- ask Could you tell me if the measured inhibition of O=C(O)c1ccc(C(=O)Nc2cc3c(=O)n(O)c(=O)[nH]c3cc2Cl)cc1 reaches 30% or more?
-- reply -1

-- ask Could you verify whether the entry O=C(NCc1ccccc1)Nc1cc2c(=O)n(O)c(=O)[nH]c2cc1Cl shows inhibition of no less than 30%?
-- reply 1

-- ask For this compound, is measured inhibition 30% or higher? O=C1OCCC1On1c(=O)[nH]c2cc(Cl)ccc2c1=O (racemic)
-- reply -1

-- ask Does the compound COC(=O)c1ccc(C(=O)Nc2cc3c(=O)n(O)c(=O)[nH]c3cc2Cl)cc1 have recorded inhibition that is 30% or more?
-- reply 1

-- ask Hello, I need to know if O=C(O)C(CCO)On1c(=O)[nH]c2cc(Cl)ccc2c1=O (racemic) has measured inhibition not below 30%. Thanks!
-- reply 1
